These entries and their values trace back to ChEMBL document CHEMBL3259561.

- MEASUREMENT TARGET: Histone deacetylase
- ASSAY TEXT: Inhibition of HDAC in human HeLa cell nuclear extract using acetylated lysine as substrate after 30 mins by spectrophotometric analysis
- Format: protein assay
For each record, write down the corresponding log10(IC50).
Friendly reminder: values = log10 of IC50, unit µM.

**Query** log10(IC50) of `COc1ccc(/C=C/C(=O)Nc2ccc(C)cc2N)cc1OCC(=O)Nc1ccc(F)c(Cl)c1` on Histone deacetylase?
**Result** 1.50

**Query** For `COc1ccc(/C=C/C(=O)NO)cc1OCC(=O)Nc1ccc(F)c(Cl)c1` then?
**Result** 0.76

**Query** What about `COc1ccc(NC(=O)COc2cc(/C=C/C(=O)NO)ccc2OC)cc1` ?
**Result** -0.03

**Query** Now consider `COc1ccc(/C=C/C(=O)Nc2ccc(C)cc2N)cc1OCC(=O)Nc1cc(C(F)(F)F)cc(C(F)(F)F)c1` .
**Result** 1.75

**Query** Next molecule: `COc1ccc(/C=C/C(=O)Nc2ccccc2N)cc1OCC(=O)Nc1cccc(C(F)(F)F)c1`
**Result** 1.35

---

- MEASUREMENT TARGET: Histone deacetylase
- ASSAY TEXT: Inhibition of HDAC in human HeLa cell nuclear extract using acetylated lysine as substrate after 30 mins by spectrophotometric analysis
- Type: protein assay
Assign log10 IC50 to each entry below.
Short version: log10 scale, IC50, µM.

**Query** Look up log10 IC50: `COc1ccc(/C=C/C(=O)NO)cc1OCC(=O)Nc1cc(Br)cc(C(F)(F)F)c1`
**Result** 0.96

**Query** Another: `COc1ccc(/C=C/C(=O)NO)cc1OCC(=O)Nc1ccc(Cl)c(Cl)c1`
**Result** 0.14

**Query** Another: `COc1ccc(/C=C/C(=O)NO)cc1OCC(=O)Nc1ccc(Br)cc1`
**Result** -0.14

**Query** Next entry: `COc1ccc(/C=C/C(=O)Nc2ccccc2N)cc1OCC(=O)Nc1cccc(F)c1`
**Result** 1.38

**Query** // next record `COc1ccc(/C=C/C(=O)Nc2ccccc2N)cc1OCC(=O)Nc1ccccc1F`
**Result** 1.19

**Query** How about `COc1ccc(NC(=O)COc2cc(/C=C/C(=O)Nc3ccccc3N)ccc2OC)cc1` ?
**Result** 1.69

**Query** Same for `COc1ccc(/C=C/C(=O)Nc2ccc(C)cc2N)cc1OCC(=O)Nc1ccccc1F`
**Result** 1.47

**Query** Please do the same for `COc1ccc(/C=C/C(=O)Nc2ccc(C)cc2N)cc1OCC(=O)Nc1ccc(Br)cc1` as well.
**Result** 1.77

**Query** Input `COc1ccc(/C=C/C(=O)Nc2ccccc2N)cc1OCC(=O)Nc1ccc(F)c(Cl)c1`
**Result** 1.82

**Query** Then this compound: `COc1ccc(/C=C/C(=O)NO)cc1OCC(=O)Nc1cccc(F)c1`
**Result** 0.45

**Query** Record: `COc1ccc(NC(=O)COc2cc(/C=C/C(=O)Nc3ccc(C)cc3N)ccc2OC)cc1`
**Result** 2.22

**Query** `COc1ccc(/C=C/C(=O)NO)cc1OCC(=O)Nc1cc(C(F)(F)F)cc(C(F)(F)F)c1` ?
**Result** 0.69

**Query** Proceed to `COc1ccc(/C=C/C(=O)NO)cc1OCC(=O)Nc1cccc(C(F)(F)F)c1`
**Result** 0.47

**Query** Try `COc1ccc(/C=C/C(=O)NO)cc1OCC(=O)Nc1ccccc1F` next.
**Result** -0.24

**Query** Next compound: `COc1ccc(/C=C/C(=O)Nc2ccc(C)cc2N)cc1OCC(=O)Nc1cccc(F)c1`
**Result** 1.85

**Query** What do we get for `COc1ccc(/C=C/C(=O)Nc2ccc(C)cc2N)cc1OCC(=O)Nc1cc(Br)cc(C(F)(F)F)c1` ?
**Result** 2.10
